- condition: in acetonitrile, 303.15 K
measured-quantity: solubility (mole fraction)

O=[N+]([O-])c1cn[nH]c1    0.0674

###

- condition: in methanol, 308.15 K
measured-quantity: solubility (mole fraction)

O=[N+]([O-])c1cn[nH]c1    0.0789

###

- condition: in acetonitrile, 290.65 K
measured-quantity: solubility (mole fraction)

O=[N+]([O-])c1cn[nH]c1    0.0558

###

- condition: in acetonitrile, 280.65 K
measured-quantity: solubility (mole fraction)

O=[N+]([O-])c1cn[nH]c1    0.0491

###

- condition: in ethanol, 303.15 K
measured-quantity: solubility (mole fraction)

O=[N+]([O-])c1cn[nH]c1    0.0614
